meta.source: the supplement of paper PMC3334620

In this section, each of the sequences is paired with its reported PBM E-score.
Biological target: Abf1 (UniProt P14164)
Sequence: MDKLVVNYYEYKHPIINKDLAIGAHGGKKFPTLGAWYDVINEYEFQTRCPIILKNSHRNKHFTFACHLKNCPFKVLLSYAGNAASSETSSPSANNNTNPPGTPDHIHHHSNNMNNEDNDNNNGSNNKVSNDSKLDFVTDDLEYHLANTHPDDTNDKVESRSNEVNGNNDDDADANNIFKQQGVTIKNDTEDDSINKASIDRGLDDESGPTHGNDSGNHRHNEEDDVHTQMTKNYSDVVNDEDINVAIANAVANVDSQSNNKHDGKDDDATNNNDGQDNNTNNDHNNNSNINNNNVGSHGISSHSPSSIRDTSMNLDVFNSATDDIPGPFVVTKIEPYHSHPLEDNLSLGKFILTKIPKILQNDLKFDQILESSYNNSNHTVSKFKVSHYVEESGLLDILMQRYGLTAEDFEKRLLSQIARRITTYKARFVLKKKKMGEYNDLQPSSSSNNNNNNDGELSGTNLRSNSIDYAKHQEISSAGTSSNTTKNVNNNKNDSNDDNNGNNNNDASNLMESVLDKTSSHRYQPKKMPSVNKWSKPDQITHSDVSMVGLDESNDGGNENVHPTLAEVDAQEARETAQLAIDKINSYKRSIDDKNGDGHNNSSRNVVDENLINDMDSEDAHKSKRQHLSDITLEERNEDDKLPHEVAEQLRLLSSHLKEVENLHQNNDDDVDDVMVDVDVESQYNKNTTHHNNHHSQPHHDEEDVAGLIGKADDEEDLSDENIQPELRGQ
Test: PBM E-score (8-mer binding enrichment) (E-score (-0.5 to 0.5)); higher = stronger / more preferred TF binding
Conditions: protein concentration: 200 nM; construct: GST-full length
Whole data set: some 33,000 sequences, median “E-score (-0.5 to 0.5)” near -0.015, cut for the highest 2% near 0.3. The sample as a whole holds a higher share of the highest values than the screen did.
Property: PBM E-score

>  <Sequence>
CCCACGAG

>  <Property>
PBM E-score

>  <Result>
0.0399

$$$$
>  <Sequence>
ACAACTTA

>  <Property>
PBM E-score

>  <Result>
0.0805

$$$$
>  <Sequence>
CGTGTAAC

>  <Property>
PBM E-score

>  <Result>
0.237

$$$$
>  <Sequence>
CCCACGAC

>  <Property>
PBM E-score

>  <Result>
0.0916

$$$$
>  <Sequence>
GGCCGTAC

>  <Property>
PBM E-score

>  <Result>
0.367

$$$$
>  <Sequence>
TCGTATAA

>  <Property>
PBM E-score

>  <Result>
0.4

$$$$
>  <Sequence>
GTGACGAA

>  <Property>
PBM E-score

>  <Result>
0.315

$$$$
>  <Sequence>
ACGTAAAT

>  <Property>
PBM E-score

>  <Result>
0.113

$$$$
>  <Sequence>
AATATCAG

>  <Property>
PBM E-score

>  <Result>
0.119

$$$$
>  <Sequence>
GTCACGAC

>  <Property>
PBM E-score

>  <Result>
0.261

$$$$
>  <Sequence>
AGTATCAT

>  <Property>
PBM E-score

>  <Result>
0.286

$$$$
>  <Sequence>
CGCCGTCC

>  <Property>
PBM E-score

>  <Result>
0.308

$$$$
>  <Sequence>
ATGGGGTA

>  <Property>
PBM E-score

>  <Result>
-0.00916

$$$$
>  <Sequence>
ATGACTAA

>  <Property>
PBM E-score

>  <Result>
0.146

$$$$
>  <Sequence>
GCTGGTTA

>  <Property>
PBM E-score

>  <Result>
-0.0104

$$$$
>  <Sequence>
GTAGTCAA

>  <Property>
PBM E-score

>  <Result>
0.106

$$$$
>  <Sequence>
AATATCAA

>  <Property>
PBM E-score

>  <Result>
0.0238

$$$$
>  <Sequence>
CCGTATAA

>  <Property>
PBM E-score

>  <Result>
0.418

$$$$
>  <Sequence>
ATGACGAC

>  <Property>
PBM E-score

>  <Result>
0.265

$$$$
>  <Sequence>
GTGACTAA

>  <Property>
PBM E-score

>  <Result>
0.327

$$$$
>  <Sequence>
CTGACGAA

>  <Property>
PBM E-score

>  <Result>
0.239

$$$$
>  <Sequence>
GGCCGTAA

>  <Property>
PBM E-score

>  <Result>
0.121

$$$$
>  <Sequence>
CTCCCCAC

>  <Property>
PBM E-score

>  <Result>
-0.0818

$$$$
>  <Sequence>
CCGTATAC

>  <Property>
PBM E-score

>  <Result>
0.272

$$$$
>  <Sequence>
CCCAGAAC

>  <Property>
PBM E-score

>  <Result>
-0.144

$$$$
>  <Sequence>
AATATCAT

>  <Property>
PBM E-score

>  <Result>
0.391

$$$$
>  <Sequence>
TACACTAA

>  <Property>
PBM E-score

>  <Result>
0.114

$$$$
>  <Sequence>
GCGTAAAA

>  <Property>
PBM E-score

>  <Result>
0.103

$$$$
>  <Sequence>
CGCAAAAG

>  <Property>
PBM E-score

>  <Result>
-0.0748

$$$$
>  <Sequence>
ACGTATAT

>  <Property>
PBM E-score

>  <Result>
0.193

$$$$
>  <Sequence>
ACCCGTAA

>  <Property>
PBM E-score

>  <Result>
0.0373

$$$$
>  <Sequence>
ATACATTC

>  <Property>
PBM E-score

>  <Result>
0.0799

$$$$
>  <Sequence>
AGGTTAAG

>  <Property>
PBM E-score

>  <Result>
-0.128

$$$$
>  <Sequence>
ATGACGAA

>  <Property>
PBM E-score

>  <Result>
0.319

$$$$
>  <Sequence>
GATATCAC

>  <Property>
PBM E-score

>  <Result>
0.414

$$$$
>  <Sequence>
TGTAACAA

>  <Property>
PBM E-score

>  <Result>
0.0346

$$$$
>  <Sequence>
CGTGTAAA

>  <Property>
PBM E-score

>  <Result>
0.314

$$$$
>  <Sequence>
GCCACGAA

>  <Property>
PBM E-score

>  <Result>
0.0988

$$$$
>  <Sequence>
GTCACGAA

>  <Property>
PBM E-score

>  <Result>
0.402

$$$$
>  <Sequence>
AGCCGTAC

>  <Property>
PBM E-score

>  <Result>
0.238

$$$$
>  <Sequence>
ACGTAAAA

>  <Property>
PBM E-score

>  <Result>
0.317

$$$$
>  <Sequence>
ACCAAAAC

>  <Property>
PBM E-score

>  <Result>
0.0329

$$$$
>  <Sequence>
TCCACGAA

>  <Property>
PBM E-score

>  <Result>
0.352

$$$$
>  <Sequence>
CATCAGAC

>  <Property>
PBM E-score

>  <Result>
-0.02

$$$$
>  <Sequence>
TGACCGAA

>  <Property>
PBM E-score

>  <Result>
0.0507

$$$$
>  <Sequence>
TGGTATAA

>  <Property>
PBM E-score

>  <Result>
0.0711

$$$$
